Reported values of remaining at 0.5 h for individual entries
- ASSAY_METHOD_TEXT: Metabolic stability in human liver microsomes assessed as compound remaining after 30 mins
- Assay type: ADME, Microsome
- PROTOCOL_CONDITIONS: read-out: Stability
Provide the reading as a plain figure in %.

MOLECULE: COc1cc(NCc2cc3cc(C)c(C)cc3[nH]c2=O)ccc1-n1cnnn1
READOUT_UNIT: %
remaining at 0.5 h: 17.6
//
MOLECULE: COc1cc(NCc2cc3cc(C)ccc3[nH]c2=O)ccc1-n1cnnn1
READOUT_UNIT: %
remaining at 0.5 h: 30.8
//
MOLECULE: COc1cc(NCc2cc3cc(C(F)(F)F)ccc3[nH]c2=O)ccc1C#N
READOUT_UNIT: %
remaining at 0.5 h: 76
//
MOLECULE: COc1cc(NCc2cc3ccccc3[nH]c2=O)ccc1-n1cnnn1
READOUT_UNIT: %
remaining at 0.5 h: 88
//
MOLECULE: COc1cc(NCc2cc3cc(F)ccc3[nH]c2=O)ccc1C#N
READOUT_UNIT: %
remaining at 0.5 h: 81
//
MOLECULE: N#Cc1ccc(NCc2cc3cc(Cl)ccc3[nH]c2=O)nc1
READOUT_UNIT: %
remaining at 0.5 h: 91

Read the entry COc1nc(N[C@@H](C)c2cc3cc(Cl)c(C4CC4)cc3[nH]c2=O)ncc1C#N and write its reported remaining at 0.5 h.
93

Read the entry COc1cc(NCc2cc3cc(C)ccc3[nH]c2=O)ccc1C#N and write its reported remaining at 0.5 h.
1.2

Read the entry N#Cc1ccc(NCc2cc3cc(Cl)ccc3[nH]c2=O)cc1OC(F)(F)F and write its reported remaining at 0.5 h.
72

Read the entry Cc1nc(N[C@H](C)c2cc3cc(Cl)ccc3[nH]c2=O)ccc1C#N and write its reported remaining at 0.5 h.
100

Read the entry N#Cc1ccc(NCc2cc3cc(Cl)ccc3[nH]c2=O)nc1C(F)(F)F and write its reported remaining at 0.5 h.
94
